- system name: T1, human GIP receptor (human) (UniProt P48546)
- T1 sequence (looked up): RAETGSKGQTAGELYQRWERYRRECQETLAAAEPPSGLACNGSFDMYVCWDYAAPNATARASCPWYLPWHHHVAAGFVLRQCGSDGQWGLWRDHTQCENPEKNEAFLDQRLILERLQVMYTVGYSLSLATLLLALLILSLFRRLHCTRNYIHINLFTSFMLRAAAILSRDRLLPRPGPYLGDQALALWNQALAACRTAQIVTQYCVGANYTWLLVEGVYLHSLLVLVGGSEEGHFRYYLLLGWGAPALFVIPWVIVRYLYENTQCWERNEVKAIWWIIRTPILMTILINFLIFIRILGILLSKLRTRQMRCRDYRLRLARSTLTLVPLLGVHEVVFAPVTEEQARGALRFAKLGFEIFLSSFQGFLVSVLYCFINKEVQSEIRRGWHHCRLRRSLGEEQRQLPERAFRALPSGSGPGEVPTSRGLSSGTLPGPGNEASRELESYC
- test: cell-based or functional assay
measurement name: Relative cAMP EC50 (pM)
Kindly answer with a numeric value in pM, unit omitted.

Please review the following examples before continuing.
YXQGTXTSDXXIXLDXKAAXEFIEXLIEGGPSSGAPPPSGSEE (synthetic construct; SITE 2: note = 2-Aminoisobutyric Acid; SITE 6: note = alpha-methyl-2-fluoro-L-phenylalanine; SITE 10: note = 3-(4-Pyridyl)-L-alanine; SITE 11: note = alpha-methyl-L-serine; SITE 13: note = alpha-methyl-leucine; SITE 16: note = L-ornithine; SITE 17: note = Lysine is chemically mo) [Example 704]; 13
YXQGTXTSDXXIXLDXIAQXXFIEXLIKGGPSSGEPPPE (not fully specified; synthetic construct; SITE 2: note = 2-Aminoisobutyric Acid; SITE 6: note = alpha-methyl-2-fluoro-L-phenylalanine; SITE 10: note = 3-(4-Pyridyl)-L-alanine; SITE 11: note = alpha-methyl-L-serine; SITE 13: note = alpha-methyl-leucine; SITE 16: note = L-ornithine; SITE 20: note = 2-Aminoisobutyric Acid;) [Example 444]; 10.6
YXQGTXTSDXSILLDKKAQXAFIEYLEEGGPSSGAPPPSGEEE (non-natural residues; Lys acylated C18 diacid; C-terminal amide; synthetic construct; SITE 2: note = 2-Aminoisobutyric Acid; SITE 6: note = alpha-methyl-2-fluoro-L-phenylalanine; SITE 10: note = 3-(4-Pyridyl)-L-alanine; SITE 17: note = Lysine is chemically modified through conjugation of the epsilon-amino group of the Lysine side chain with (gamma-Glu)2-CO-(CH2)1) [Example 611]; 126
YXQGTXTSDXSILLDXKAQXAFIEXLEEGGPSSGAPPPSGTGE (synthetic construct; SITE 2: note = 2-Aminoisobutyric Acid; SITE 6: note = alpha-methyl-2-fluoro-L-phenylalanine; SITE 10: note = 3-(4-Pyridyl)-L-alanine; SITE 16: note = L-ornithine; SITE 17: note = Lysine is chemically modified through conjugation of the epsilon-amino group of the Lysine side chai) [Example 665 (SEQ ID NO: 671)]; 22.3
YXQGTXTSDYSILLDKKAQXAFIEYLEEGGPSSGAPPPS (not fully specified; synthetic construct; SITE 2: note = 2-Aminoisobutyric Acid; SITE 6: note = alpha-methyl-2-fluoro-L-phenylalanine; SITE 17: note = Lysine is chemically modified through conjugation of the epsilon-amino group of the Lysine side chain with (2-[2-(2-Amino-ethoxy)-ethoxy]-acetyl)-(gamma-Glu)-CO-(CH2) 16-) [Example 387]; 27.6

Would you kindly look at the next entry?
Query string: For the binder shown here, YXQGTFTSDFSXXLDKKAQXAFIEWLLEGGESSGAPPPEGS (synthetic construct; SITE 2: note = 2-Aminoisobutyric Acid; SITE 12: note = L-ornithine; SITE 13: note = alpha-methyl-leucine; SITE 17: note = Lysine is chemically modified through conjugation of the epsilon-amino group of the Lysine side chain with (2-[2-(2-Amino-ethoxy)-ethoxy]-acetyl)-(gamma-Glu)) [Example 125] , give the reported Relative cAMP EC50.
Result string: 503

# credit: patent US20240270821A1
